- experiment: Fraction unbound by equilibrium dialysis
- Assay type: in vitro ADME
- condition.details: Table S5; fraction unbound
readout.type: fu
Please respond with just the number, no unit label.

// returns reported fu for input CC(=O)NCCc1nc2ccccc2n1CCOCc1ccccc1 [Compound 56]
0.97

// returns reported fu for input O=C(COc1cccc2ccccc12)NCCc1nc2ccccc2[nH]1 [Compound 44]
0.34

// returns reported fu for input CC(=O)NCCc1nc2ccccc2n1CCOc1ccccc1Br [Compound 57]
0.94

// returns reported fu for input O=C(CCOc1ccccc1)NCCc1nc2ccccc2[nH]1 [Compound 49]
1.00

// returns reported fu for input O=C(COc1ccc2ccccc2c1O)NCCc1nc2ccccc2[nH]1 [Compound 47]
0.72

Just for reference, paper PMC8767159 is where these values come from.
